system: A549; assay: cells; conditions: Homo sapiens, A549, 48 h
pIC50: −log10 of the molar value.
ENDPOINT LABEL: pIC50

In [3]: df
Out[3]:
                                   molecule  study_system  readout_value
0           CC(O)C(=O)O (centres undefined)          A549           4.58
1  COc1ccccc1CN[C@H]1C2CCN(CC2)[C@H]1C(c1ccccc1)c1ccccc1          A549           4.33
2  N#CC1=C(N)OC(c2ccccn2)=C(S(=O)(=O)c2ccccc2)C1c1ccc([N+](=O)[O-])cc1 (racemic)          A549           3.83

I. Cc1ccc([S@@+]([O-])C2=C(c3ccccn3)OC(N)=C(C#N)[C@@H]2c2ccccc2)cc1
II. COc1ccc([C@H]2C(C#N)=C(N)OC(c3ccccn3)=C2[S@+]([O-])c2ccc(C)cc2)cc1
# input // max by pIC50 over [ I , II ] Provide the label of your selected option as the answer.
# output I

P. N#CC1=C(N)OC(c2ccccn2)=C([S+]([O-])c2ccc([N+](=O)[O-])cc2)C1c1ccc([N+](=O)[O-])cc1 (racemic)
Q. CC(=O)NC1=C(C#N)[C@@H](c2ccc(C)cc2)C([S@@+]([O-])c2ccc(C)cc2)=C(c2ccccn2)O1
# input // max by pIC50 over [ P , Q ] Provide the label of your selected option as the answer.
# output Q
(Q: 3.97, P: 3.27)

###

test: Cytotoxicity against human MRC5 cells assessed as cell growth inhibition at 10^3 uM after 48 hrs by MTT assay relative to control; type: cell-based; settings: read-out: GI
ENDPOINT LABEL: inhibition at 48 h, 1000 uM (%)
Just the number please, in %, no unit attached.

# input State the recorded inhibition at 48 h, 1000 uM for this entry: COc1ccc([C@H]2C(C#N)=C(N)OC(c3ccccn3)=C2[S@+]([O-])c2ccc(C)cc2)cc1
# output 30

###

target: UniProt:P25103; assay: Antagonist activity at His6-tagged NK1 receptor (unknown origin) expressed in CHO cells assessed as inhibition of substance-P-induced IP1 accumulation at 5 x 10^-5M preincubated for 10 mins followed by substance-P addition measured after 30 mins by HTRF-FRET assay relative to control; type: functional, cell-based
ENDPOINT LABEL: inhibition (%)

The following molecules have reported results that may help.
In [3]: df
Out[3]:
                                   molecule  readout_value
0  CC(=O)NC1=C(C#N)[C@H](c2ccc(C)cc2)C([S@+]([O-])c2ccc(C)cc2)=C(c2ccccn2)O1           37.1
1  CC(=O)NC1=C(C#N)[C@@H](c2ccc(C)cc2)C([S@@+]([O-])c2ccc(C)cc2)=C(c2ccccn2)O1           47.2
2  Cc1ccc([S@+]([O-])C2=C(c3ccccn3)OC(N)=C(C#N)[C@H]2c2ccc(Cl)cc2)cc1             21
3  Cc1ccc([S@+]([O-])C2=C(c3ccccn3)OC(N)=C(C#N)[C@H]2c2ccc(F)cc2)cc1             21

a. Cc1ccc([S+]([O-])C2=C(c3ccccn3)OC(N)=C(C#N)C2c2ccccc2)cc1 (racemic)
b. N#CC1=C(N)OC(c2ccccn2)=C([S+]([O-])c2ccc([N+](=O)[O-])cc2)C1c1ccc([N+](=O)[O-])cc1 (racemic)
c. Cc1ccc(C2C(C#N)=C(N)OC(c3cc(C(F)(F)F)cc(C(F)(F)F)c3)=C2[S+]([O-])c2ccc(C)cc2)cc1 (racemic)
# input Task for the reader: rank each entry by its inhibition, from the minimum upward. Please respond with the labels ordered as the question requires.
# output c, a, b

###

biological target: Substance-P receptor (Homo sapiens); assay: Antagonist activity at His6-tagged NK1 receptor (unknown origin) expressed in CHO cells assessed as inhibition of substance-P-induced IP1 accumulation preincubated for 10 mins followed by substance-P addition measured after 30 mins by HTRF-FRET assay
ENDPOINT LABEL: pIC50
Friendly reminder that pIC50 comes from taking -log10 of the concentration in mol/L.

# input # returns recorded pIC50 (system: Substance-P receptor (Homo sapiens)) for N#CC1=C(N)OC(c2ccccn2)=C(S(=O)(=O)c2ccccc2)C1c1ccc([N+](=O)[O-])cc1 (racemic)
# output 3.70

###

molecular target: Substance-P receptor (Homo sapiens, UniProt P25103); assay: Antagonist activity at His6-tagged NK1 receptor (unknown origin) expressed in CHO cells assessed as inhibition of substance-P-induced IP1 accumulation at 10^-5 M preincubated for 10 mins followed by substance-P addition measured after 30 mins by HTRF-FRET assay relative to control; assay type: functional, cell-based
Sequence (P25103 whole entry): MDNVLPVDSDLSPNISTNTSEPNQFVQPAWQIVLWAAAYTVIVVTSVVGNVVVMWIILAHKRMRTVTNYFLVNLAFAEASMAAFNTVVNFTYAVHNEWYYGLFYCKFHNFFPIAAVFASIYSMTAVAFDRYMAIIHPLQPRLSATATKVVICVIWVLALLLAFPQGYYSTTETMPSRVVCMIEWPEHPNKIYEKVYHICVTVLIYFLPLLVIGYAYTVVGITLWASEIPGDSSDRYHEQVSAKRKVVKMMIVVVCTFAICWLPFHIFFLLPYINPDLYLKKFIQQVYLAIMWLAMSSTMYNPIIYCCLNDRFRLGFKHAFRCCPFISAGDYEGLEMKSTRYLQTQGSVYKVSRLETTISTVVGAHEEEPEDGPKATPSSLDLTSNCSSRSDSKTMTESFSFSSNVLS
ENDPOINT LABEL: inhibition (%)

                                   compound                              study_system  readout_unit  readout_value
0  N#CC1=C(N)OC(c2ccccn2)=C(S(=O)(=O)c2ccccc2)C1c1ccc([N+](=O)[O-])cc1 (racemic)  Substance-P receptor (Homo sapiens, UniProt P25103)             %           45.5
1  N#CC1=C(N)OC(c2ccccn2)=C([S+]([O-])c2ccc([N+](=O)[O-])cc2)C1c1ccc([N+](=O)[O-])cc1 (racemic)  Substance-P receptor (Homo sapiens, UniProt P25103)             %           35.6
2  Cc1ccc([S+]([O-])C2=C(c3ccccn3)OC(N)=C(C#N)C2c2ccccc2)cc1 (racemic)  Substance-P receptor (Homo sapiens, UniProt P25103)             %             35
3  N#CC1=C(N)OC(c2ccccn2)=C([S+]([O-])c2ccccc2)C1c1ccccc1 (racemic)  Substance-P receptor (Homo sapiens, UniProt P25103)             %             32
4  Cc1ccc([C@H]2C(C#N)=C(N)OC(c3ccccn3)=C2[S@+]([O-])c2ccc(C)cc2)cc1  Substance-P receptor (Homo sapiens, UniProt P25103)             %           37.5
